target: human P Glycoprotein (Pgp) / Multidrug resistance protein 1 (MDR1), gene ABCB1, on cells (human, UniProt P08183 1-1280); assay: cell-based or functional assay
PROPERTY: Vincristine IC50 (nM) on N6/ADR cells with antibody at 50 ug/mL
State the answer as a number, implicitly in nM.

Short answer for Ab1 (15D3 IgG1 DD / KT14 IgG1 KK / MRK16 VL-Hz1) (bispecific antibody, V domains shown, Human IgG1 heavy chains with DD (K392D, K409D) on the 15D3 arm and KK (E356K, D399K) on the KT14 (5F9) arm; kappa light chain) VH 1: EVKVVESGGVLVRPGGSLKLSCAASGFTFSRYTMSWVRQTPEKRLEWVATISSGGGNTYYPDSVKGRFTVSRDNAMSSLYLQMSSLRSEDTALYYCARYGAGDAWFAYWGQGTLVTVSA VH 2: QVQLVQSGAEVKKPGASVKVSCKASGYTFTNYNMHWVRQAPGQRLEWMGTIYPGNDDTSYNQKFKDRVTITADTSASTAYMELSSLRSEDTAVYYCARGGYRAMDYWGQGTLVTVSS VL: DIVMTQTPLSSPVTLGQPASISCRSSQSIVHSTGQTYLEWYQQRPGQPPRLLIYKISNRFSGVPDRFSGSGAGTDFTLKISRVEAEDVGVYYCFQASHFPRTFGQGTKLEIK : Vincristine IC50 (nM) on N6/ADR cells with antibody at 50 ug/mL was 0.002

Origin of measurements: patent US20220204627A1
